# Assay target: hROMK (human Kir1.1) (Homo sapiens (Human))
# Sequence (P48048 whole entry): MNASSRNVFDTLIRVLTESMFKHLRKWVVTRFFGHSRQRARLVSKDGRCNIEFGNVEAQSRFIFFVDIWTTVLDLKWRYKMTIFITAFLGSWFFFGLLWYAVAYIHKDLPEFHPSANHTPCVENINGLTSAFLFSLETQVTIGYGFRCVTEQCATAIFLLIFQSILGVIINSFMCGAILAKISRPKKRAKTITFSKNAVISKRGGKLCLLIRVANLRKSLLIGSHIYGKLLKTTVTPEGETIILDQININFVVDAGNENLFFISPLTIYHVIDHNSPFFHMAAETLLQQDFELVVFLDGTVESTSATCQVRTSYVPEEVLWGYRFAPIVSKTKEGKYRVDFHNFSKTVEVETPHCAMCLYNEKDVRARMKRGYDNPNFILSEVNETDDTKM
# Procedure text: Thallium Flux Assay
# Test parameters: CHO T-Rex hROMK stable cell line, 10-point concentration response; read-out: hROMK Th+ Flux IC50
pIC50: −log10 of the molar value.
Consider the following molecules and their measured pIC50 readings.

# Molecule, pIC50
records = [
    ("Cc1c(C(CO)N2CCc3nc(-n4cc(C#N)c5ccccc54)ncc3C2)ccc2c1COC2=O (single isomer, unassigned) [Example 9-I]", 5.52),
    ("Cc1c(C(O)CN2CCc3nc(-n4cnc5cccnc54)ncc3C2)ccc2c1COC2=O (single isomer, unassigned)", 5.83),
    ("Cc1c(C(O)CN2CCc3nc(-n4cc(C#N)c5ccccc54)ncc3C2)ccc2c1COC2=O (single isomer, unassigned) [Example 8-II]", 7.08),
    ("COc1cc(Nc2ncc3c(n2)CCN(CC(O)c2ccc4c(c2C)COC4=O)C3)ncc1C#N (single isomer, unassigned)", 6.42),
    ("Cc1c(C(O)CN2CCc3nc(-n4ncc5ncccc54)ncc3C2)ccc2c1COC2=O (single isomer, unassigned) [Example 41-I]", 7.22),
    ("Cc1c(C(CO)N2CCc3nc(Nc4ccc(C#N)c(F)c4)ncc3C2)ccc2c1COC2=O (single isomer, unassigned) [Example 29-I]", 5.52),
    ("Cc1c(C(O)CN2CCc3nc(-n4ccc5c(C#N)cccc54)ncc3C2)ccc2c1COC2=O (single isomer, unassigned) [Example 1-II]", 6.34),
    ("N#Cc1ccc(Nc2ccc3c(c2)CCN(CCc2ccc4c(c2)COC4=O)C3)cc1F", 6.92),
    ("Cc1c(C(O)CN2CCc3nc(-n4ncc5ncccc54)ncc3C2)ccc2c1COC2=O (single isomer, unassigned) [Example 41-II]", 5.92),
    ("Cc1cc(Nc2ccc3c(c2)CCN(Cc2ccc4c(c2)COC4=O)C3)ncc1C#N", 6.52),
    ("Cc1c(C(O)CN2CCc3nc(-n4ncc5cc(C#N)ccc54)ncc3C2)ccc2c1COC2=O (single isomer, unassigned)", 6.15),
    ("N#Cc1ccc2c(ccn2-c2ncc3c(n2)CCN(CC(O)c2ccc4c(c2)COC4=O)C3)c1 (single isomer, unassigned) [Example 17-II]", 6.07),
    ("COC(=O)c1cnc2ccn(-c3ncc4c(n3)CCN(CC(O)c3ccc5c(c3C)COC5=O)C4)c2c1 (single isomer, unassigned)", 5.91),
]
